Exercise: for every item that follows, state its recorded furin cleavage Z-score.
Molecular target: furin, P09958;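 further: purified furin at 1:10 enzyme:substrate in 50 mM HEPES pH 7.5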
Sequence (P09958 whole entry): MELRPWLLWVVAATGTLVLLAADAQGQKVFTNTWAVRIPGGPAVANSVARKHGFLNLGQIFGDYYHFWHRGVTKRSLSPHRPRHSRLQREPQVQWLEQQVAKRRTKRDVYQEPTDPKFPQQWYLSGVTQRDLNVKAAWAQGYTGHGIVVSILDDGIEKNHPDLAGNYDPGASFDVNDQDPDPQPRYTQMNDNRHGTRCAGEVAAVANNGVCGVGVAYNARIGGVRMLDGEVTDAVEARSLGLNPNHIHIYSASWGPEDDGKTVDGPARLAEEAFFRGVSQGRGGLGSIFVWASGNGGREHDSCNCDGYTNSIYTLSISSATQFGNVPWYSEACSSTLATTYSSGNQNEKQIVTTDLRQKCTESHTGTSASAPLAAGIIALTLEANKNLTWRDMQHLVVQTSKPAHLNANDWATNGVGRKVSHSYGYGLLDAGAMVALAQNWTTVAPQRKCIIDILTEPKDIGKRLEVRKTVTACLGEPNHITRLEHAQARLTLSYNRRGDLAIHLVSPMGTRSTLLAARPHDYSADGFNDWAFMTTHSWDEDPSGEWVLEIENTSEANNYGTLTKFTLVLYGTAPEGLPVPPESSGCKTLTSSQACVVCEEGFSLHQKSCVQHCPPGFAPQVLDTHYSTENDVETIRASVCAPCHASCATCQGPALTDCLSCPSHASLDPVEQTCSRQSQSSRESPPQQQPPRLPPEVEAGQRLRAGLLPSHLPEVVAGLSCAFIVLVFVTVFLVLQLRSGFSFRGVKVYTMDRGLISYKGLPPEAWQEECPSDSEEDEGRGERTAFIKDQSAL
Experiment: furin cleavage Z-score vs untreated control; higher = more cleavage, active = 3.5 or more, inactive = 1 or less, 8 variable residues between constant flanks
Conditions: 30 min
Some of the results follow. The hit rate among all sequences tested is not known here.
One number for each entry.

Illustrative cases are given below, each with its answer.
Record Sequence	furin cleavage Z-score
CAHPHRQRKEAGNASASA [FS-1009]	2.5
CALTESTLSTAGNASASA [HC1328]	1.01

If you can, please state the reported furin cleavage Z-score value of CAHRSRKAKEAGNASASA [FS-1010] .
1.2

These measurements were taken from the supplement of paper PMC3545927.
